Reported cell viability values are given for each entry in this list.
System: P12-Ichikawa
method description: cell viability relative to DMSO control; higher = less cytotoxic
settings: HPLM + 10% dialyzed FBS; 48 h; 0.569 µM
Field format: number, assumed %, no unit text.

| smi | cell viability (%) |
| --- | --- |
| CCOc1ccccc1N/N=C1/C(=O)N(c2nc(-c3ccccc3)cs2)N=C1C | 104 |
| COc1cc2c(cc1OC)CN(CCc1ccc(NC(=O)c3cccc4c(=O)c5cccc(OC)c5[nH]c34)cc1)CC2 | 123 |
| CCOC(=O)c1c(CSc2ccccc2)n(C)c2cc(Br)c(O)c(CN(C)C)c12 | 118 |
| Cc1nc2ccc(CN(C)c3ccc(C(=O)N[C@@H](CCC(=O)O)C(=O)O)s3)cc2c(=O)[nH]1 | 42.2 |
| c1ccc2c(CN3CCNCC3)cccc2c1 | 109 |
| N#CC1(c2cccc(C(=O)Nc3cc(Oc4ccc5nc(NC(=O)C6CC6)sc5n4)ccc3F)c2Cl)CC1 | 97 |
| C/C=C(\C)C(=O)N[C@@H](c1ccccc1)[C@@H](O)C(=O)O[C@H]1C[C@@]2(O)[C@@H](OC(=O)c3ccccc3)[C@@H]3[C@]4(OC(C)=O)CO[C@@H]4C[C@H](O)[C@@]3(C)C(=O)[C@H](OC(C)=O)C(=C1C)C2(C)C | 21.4 |

Turning now to a further molecule:
Bench note, P12-Ichikawa: entry CC1(C)[C@@H](O)CC[C@@]2(C)[C@H]1CC[C@]3(C)[C@@H]2C(=O)\C=C/4[C@@H]5C[C@](C)(CC[C@]5(C)CC[C@@]34C)C(O)=O , its cell viability = 110
